- Measured target: T1, cynomolgus monkey CD8 alpha on primary cynomolgus CD8+ T cells (cynomolgus monkey, UniProt P01732 23-235 (human entry))
- T1 construct: also called Cyno CD8alpha; cyno CD8A
- T1 sequence (P01732 other isoform, or with tags, fused parts or gaps limits assumed): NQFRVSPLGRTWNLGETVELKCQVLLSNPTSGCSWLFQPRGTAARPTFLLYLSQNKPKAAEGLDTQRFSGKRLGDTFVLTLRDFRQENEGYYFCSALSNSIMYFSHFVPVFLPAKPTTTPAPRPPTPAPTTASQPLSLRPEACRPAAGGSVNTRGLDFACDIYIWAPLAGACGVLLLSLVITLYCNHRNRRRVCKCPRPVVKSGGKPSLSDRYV
- Test: flow cytometry, cyno CD8+ T cells
Label Condition met when Cyno T-cell Binding 0.2 uM (MFI) >= 5000 MFI; otherwise Condition not met.

For orientation, consider the following solved cases.
Binder	Class assignment
P283GR7P1367_B4 (designed binder, FN3 domain) LPAPKNLVVSRVTEDSARLSWTAPDAAFDSFSILYYELPPSGEAIVLTVPGSERSYDLTGLKPGTEYTVSIFGVKGGDNSFPLSAIFTT	Condition not met
P283HR7P1368_H1 (designed binder, FN3 domain) LPAPKNLVVSRVTEDSARLSWTAPDAAFDSFGIAYIETARWGEAISLTVPGSERSYDLTGLKPGTEYNVVIIGVKGGTPSHPLGAPFTT	Condition not met
P283ER9P1365_A7 (designed binder, FN3 domain) LPAPKNLVVSRVTEDSARLSWTAPDAAFDSFYIPYWESEVYGEAIALPVPGSERSYDLTGLKPGTEYQVSIIGVKGGVYSQPLAAIFTT	Condition not met
P283GR7P1367_C9 (designed binder, FN3 domain) LPAPKNLVVSRVTEDSARLSWTAPDAAFDSFLIGYPEWPLGGEAIVLTVPGSERSYDLTGLKPGTEYWVIIYGVKGGEYSDPLSAIFTT	Condition met
P283FR9P1366_G8 (designed binder, FN3 domain) LPAPKNLVVSRVTEDSARLSWTAPDAAFDSFDIAYPELPIGGEAIVLTVPGSERSYDLTGLKPGTEYFVVIYGVKGGIHSAPLSAIFTT	Condition not met
P283BR9P1363_F4 (designed binder, FN3 domain) LPAPKNLVVSRVTEDSARLSWERIVQTPHFDSFLIQYQESEKVGEAIVLTVPGSERSYDLTGLKPGTEYTVSIYGVDVKWEGNRPVASNPLSAIFTT	Condition not met

Could you verify whether the entry P283GR7P1367_A11 (designed binder, FN3 domain) LPAPKNLVVSRVTEDSARLSWTAPDAAFDSFDIAYPEWPTDGEAIVLTVPGSERSYDLTGLKPGTEYFVIIYGVKGGSYSEPLSAIFTT shows Cyno T-cell Binding 0.2 uM (MFI) of no less than 5000 MFI?
Condition met

Could you verify whether the entry P283GR7P1367_H2 (designed binder, FN3 domain) LPAPKNLVVSRVTEDSARLSWTAPDAAFDSFDIAYPEWPTDGEAIVLTVPGSERSYDLTGLKPGTEYFVVIYGVKGGGRSYPLSAIFTT shows Cyno T-cell Binding 0.2 uM (MFI) of no less than 5000 MFI?
Condition not met
